Each entry below lists one item and its recorded Test H disease control rating value.
Tested on: Puccinia recondita f. sp. tritici
Assay procedure: Test H: wheat leaf rust, test suspension sprayed after inoculation of wheat seedlings, visual disease rating
Format: in vivo
Assay conditions: 200 ppm; 100 = 100% disease control, 0 = no control relative to controls
Kindly answer with a numeric value in %, unit omitted.

COc1cc(F)c(-c2c(Cl)nc(Br)n2-c2ccc(F)c(F)c2)c(F)c1 | 28

Consider the molecule Fc1ccc(-n2c(Br)nc(Br)c2-c2ccc(Cl)cc2)c(Cl)c1 . State its measured Test H disease control rating.
6

###

System: Septoria tritici
Assay procedure: Test G: wheat leaf blotch on wheat seedlings, sprayed the day before inoculation, visual disease rating
Format: in vivo
Assay conditions: 200 ppm; 100 = 100% disease control, 0 = no control relative to controls
From the text: General protocol for preparing test suspensions for Tests A-J: The test compounds were first dissolved in acetone in an amount equal to 3% of the final volume and then suspended at the desired concentration (in ppm) in acetone and purified water (50/50 mix) containing 250 ppm of the surfactant Trem® 014 (polyhydric alcohol esters). […]
Each entry below lists one item and its recorded Test G disease control rating value.
Kindly answer with a numeric value in %, unit omitted.

Worked examples follow.
Cc1ncn(-c2ccc(Cl)c(F)c2)c1-c1ccccc1F [compound 318] | 91
Cc1nc(Br)n(-c2ccc(Cl)nc2)c1-c1c(F)ccc(C#N)c1F [compound 715] | 99
Cc1nc(Cl)c(-c2c(F)cccc2F)n1Cc1ccccc1 [compound 118] | 94
Fc1ccc(-n2c(Cl)nc(Br)c2-c2c(F)ccc(F)c2F)cc1 [compound 352] | 92
COc1cc(F)c(-c2c(Cl)nc(Br)n2-c2ccc(F)c(F)c2)c(F)c1 [compound 484] | 95

Consider the molecule Cc1ncc(Cc2c(F)cc(F)cc2F)n1-c1ccc(Cl)cc1 [compound 530] . State its measured Test G disease control rating.
58

Consider the molecule Cc1nc(Br)c(Cc2ccc(F)cc2F)n1-c1ccc(Cl)cc1 [compound 404] . State its measured Test G disease control rating.
99

Consider the molecule Cc1nn(C)c(Cc2ccc(Cl)cc2)c1-c1ccc(F)cc1Cl [compound 344] . State its measured Test G disease control rating.
95

Consider the molecule Fc1cccc(-n2c(Cl)nc(Cl)c2-c2c(F)ccc(F)c2F)c1 [compound 366] . State its measured Test G disease control rating.
91

Consider the molecule Cc1ncn(-c2ccc(Cl)c(F)c2)c1-c1ccnc(F)c1 [compound 319] . State its measured Test G disease control rating.
98

Consider the molecule COc1cc(F)c(-c2c(Cl)ncn2-c2ccc(OC(F)(F)F)cc2)c(F)c1 [compound 559] . State its measured Test G disease control rating.
95

Consider the molecule COc1cc(F)c(-c2c(Br)nn(C)c2-c2ccc(Cl)cc2)c(F)c1 [compound 424] . State its measured Test G disease control rating.
100

Consider the molecule CCc1ccc(-n2c(Cl)nc(Cl)c2-c2c(F)ccc(OC)c2F)cc1 [compound 442] . State its measured Test G disease control rating.
95
